# procedure.details: Inhibition of CK2 in rat liver
property.label: pKi
Note on pKi: it is the negative log10 of concentration, concentration in mol/L.

Would you kindly share the measured pKi for Cc1c(Br)c(=O)oc2c(Br)c(O)ccc12 ?
7.22
